B1: TPR 5TU (parent)
chain: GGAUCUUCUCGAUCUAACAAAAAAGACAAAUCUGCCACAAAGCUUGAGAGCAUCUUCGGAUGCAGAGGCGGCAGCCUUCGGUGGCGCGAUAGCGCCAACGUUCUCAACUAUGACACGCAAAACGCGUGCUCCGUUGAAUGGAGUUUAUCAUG

Variants of: B1
Experiment: polymerase ribozyme fitness, log enrichment relative to wild type (log ratio); higher = more active; in vitro selection for triplet polymerase activity
Variants at the floor of the assay were thinned out.
measurementLabel: polymerase ribozyme fitness (log ratio)

>>> df
                           variantlabel  limitqualifier  numericresult
 0      C27G C43U C75G U78G C129G G143A               ≤           -4.2
 1                     C18G C114G A122G               =          -3.64
 2                           G70U G136A               =          -1.86
 3                C85U A89U G126U U145G               =          -3.94
 4                  G50U G65C A66C C96G               ≤           -4.2
 5                           G83C C118G               =         -0.968
 6      C54G G80C G81A C85U C129A U135C               ≤           -4.2
 7                  A23G C32G G70A C85G               ≤           -4.2
 8                  A41C U55A G58C A98U               =         -0.108
 9                A22G A41G A120G G141U               =           1.45
10  C14G A16G A22C A60U C87U C93U A121C               ≤           -4.2
